system: mtsABAD HEK293 cells; assay: Lactate dehydrogenase (LDH) cytotoxicity assay; format: cell-based, human; settings: 50 μM compound
Please provide measured LDH % Toxicity (50 μM Dose) for the entries that follow.

COc1ccccc1-c1ccccc1[C@@H]1CCCN1C(=O)c1sccc1C; 4.36%
Cc1ccsc1C(=O)N1CCC[C@H]1c1ccccc1-c1cccc(Cl)c1; 5.98%
CCCC(=O)N(CC(C)C)c1cccc(N(C)Cc2cnc[nH]2)c1; 5.54%
COc1ccc(-c2ccccc2[C@H]2CCCN2C(=O)c2ccccc2F)cn1 (stereo in doubt); 4.780%
CC(C)CN(C(=O)c1ccccc1)c1cccc(N(C)Cc2cnc[nH]2)c1; 4.554%
Cc1ccsc1C(=O)N1CCC[C@H]1c1ccccc1-c1cccc(S(C)(=O)=O)c1; 6.93%
CC(C)CN(C(=O)c1ccccc1F)c1cccc(N(C)Cc2ccncc2)c1; 5.501%
CC(C)CN(C(=O)c1ccccc1F)c1cccc(N(C)Cc2ncc[nH]2)c1; 5.842%

// below: LDH % Toxicity (50 μM Dose) requested for another molecule
Ask: Quick one: LDH % Toxicity (50 μM Dose) of CN(Cc1c[nH]cn1)c1cccc(N(CC2CCC2)C(=O)c2ccccc2F)c1 ?
Reply: 4.52%
